Experiment: Drug level in mouse brain at 5 mg/kg, ip administered as single dose measured at 1 hr post dose by liquid chromatography/tandem mass spectrometric analysis
Format: ADME, organism-based
Details: read-out: Drug uptake
Note to self: class = bucket of concentration at 1 h, per low: < 2000 nM; intermediate: ≥ 2000 nM and < 4000 nM; high: ≥ 4000 nM

Before answering, review these 5 worked examples.
O=C(Nc1ccc2sc(-c3cccc(F)c3)nc2c1)N1CCCC1 | intermediate
CN(C)C1CCN(C(=O)Nc2ccc3sc(-c4ccc(F)c(F)c4)nc3c2)C1 (stereo not drawn) | intermediate
O=C(Nc1ccc2sc(-c3ccc(F)c(F)c3)nc2c1)N1CCCC1 | high
O=C(Nc1ccc2sc(-c3ccc(F)c(F)c3)nc2c1)N1CCCCC1 | low
O=C(Nc1ccc2oc(-c3ccccc3)nc2c1)N1CCCC1 | low

Please classify: `Cl.S=C(NCCc1nc(-c2ccccc2)cs1)N1CCCCC1`
low

For `O=C(Nc1ccc2sc(-c3ccc(F)c(F)c3)nc2c1)N1CCC(F)CC1` then?
intermediate

For `O=C(Nc1ccc2sc(-c3cccc(F)c3F)nc2c1)N1CCCC1` then?
intermediate

For `O=C(Nc1ccc2sc(-c3ccc(F)c(F)c3)nc2c1)N1CCC(F)(F)C1` then?
high

For `O=C(Nc1ccc2sc(-c3ccccc3)nc2c1)N1CCCC1` then?
high

For `O=C(Nc1ccc2sc(-c3ccc(F)c(F)c3)nc2c1)N1CC[C@@H](F)C1` then?
high

For `O=C(Nc1ccc2sc(-c3ccc(F)c(F)c3)nc2c1)N1CC[C@H](F)C1` then?
high

Source: ChEMBL document CHEMBL3992510
